Test system: CAF#2 (primary prostate cancer-associated fibroblasts of iCAF-like type)
experimental.protocol: drug sensitivity score (DSS2, normalised partial AUC of dose-response, 72 h CellTiter-Glo viability) (DSS (dimensionless)); higher = more sensitive (stronger growth inhibition / cytotoxicity); extreme values may be limits of the assay
Item-by-item account of drug sensitivity score
Answer as a number with no unit attached.

# compound, assayed.target, drug sensitivity score
rows = [
    ("Nc1cc(COc2c(Cl)cc(C[C@H](N)C(=O)O)cc2Cl)c2oc(-c3ccccc3)nc2c1 [JPH203] (tested concentration range 0.5-5000 nM)", "CAF#2", 2),
    ("Cn1cnc2c(F)c(Nc3ccc(Br)cc3F)c(C(=O)NOCCO)cc21 [Binimetinib] (tested concentration range 0.1-1000 nM)", "CAF#2", 2.2),
    ("COc1ccccc1S(=O)(=O)Nc1ccc2c(c1)CN(C)C(=O)N2 [PFI-1] (tested concentration range 3-30000 nM)", "CAF#2", 2.1),
]

We next turn to a different compound, shown below.
So for CCCS(=O)(=O)Nc1ccc(F)c(C(=O)c2c[nH]c3ncc(-c4ccc(Cl)cc4)cc23)c1F [Vemurafenib] (tested concentration range 1-10000 nM) , the logged drug sensitivity score turned out to be 5.3

====

System: CAF#4 (primary prostate cancer-associated fibroblasts of iCAF-like type)
experimental.protocol: drug sensitivity score (DSS2, normalised partial AUC of dose-response, 72 h CellTiter-Glo viability) (DSS (dimensionless)); higher = more sensitive (stronger growth inhibition / cytotoxicity); extreme values may be limits of the assay
property.label: drug sensitivity score
Answer as a number with no unit attached.

# compound, experimental.result
measured = [
    ("O=S(=O)(c1cccc2c(O)nccc12)N1CCCNCC1 [Hydroxyfasudil] (tested concentration range 1.9-19000 nM)", 0),
    ("NS(=O)(=O)OC[C@@H]1C[C@@H](n2ccc3c(N[C@H]4CCc5ccccc54)ncnc32)C[C@@H]1O [Pevonedistat] (tested concentration range 1-10000 nM)", 7),
    ("Cn1cc(-c2ccc(F)c(C(F)(F)F)c2)nc1C1CCN(c2ncnc3[nH]ncc23)CC1 (tested concentration range 1-10000 nM)", 1.4),
]

Measured drug sensitivity score for this entry O=C(Nc1cc(Cl)cc2c1[nH]c1cnccc12)c1cccnc1 [PS-1145] (tested concentration range 2.5-25000 nM) on CAF#4: 0

Measured drug sensitivity score for this entry CC(=O)c1c(C)c2cnc(Nc3ccc(N4CCNCC4)cn3)nc2n(C2CCCC2)c1=O [Palbociclib] (tested concentration range 1-10000 nM) on CAF#4: 3.3

Measured drug sensitivity score for this entry CCN(CC)CCCC(C)Nc1ccnc2cc(Cl)ccc12 (stereo not drawn) [Chloroquine] (tested concentration range 10-100000 nM) on CAF#4: 8.6

Measured drug sensitivity score for this entry Nc1cccc2c1CN(C1CCC(=O)NC1=O)C2=O (stereo not drawn) [Lenalidomide] (tested concentration range 10-100000 nM) on CAF#4: 3

Measured drug sensitivity score for this entry CN[C@@H](C)C(=O)N[C@H](C(=O)N1CCC[C@H]1c1nc(C(=O)c2ccc(F)cc2)cs1)C1CCCCC1 [NVP-LCL161] (tested concentration range 2.5-25000 nM) on CAF#4: 0.3

====

Test system: CAF#5 (primary prostate cancer-associated fibroblasts of myCAF-like type)
experimental.protocol: drug sensitivity score (DSS2, normalised partial AUC of dose-response, 72 h CellTiter-Glo viability) (DSS (dimensionless)); higher = more sensitive (stronger growth inhibition / cytotoxicity); extreme values may be limits of the assay
property.label: drug sensitivity score
Answer as a number with no unit attached.

# compound, drug sensitivity score
data = [
    ("NC(=O)c1cccc2cn(-c3ccc([C@@H]4CCCNC4)cc3)nc12 [Niraparib] (tested concentration range 1-10000 nM)", 1.7),
    ("CN(CC(=O)N(Cc1ccc(C2CCCCC2)cc1)c1ccc(C(=O)O)cc1)S(=O)(=O)c1c(F)c(F)c(F)c(F)c1F [SH-4-54] (tested concentration range 2.5-25000 nM)", 6),
]

So for FC(F)(F)c1ccc(/C=C/c2nc(COc3ccc(CCCCn4ccnn4)cc3)co2)cc1 [Mubritinib] (tested concentration range 0.1-1000 nM) , the logged drug sensitivity score turned out to be 0

So for CC#CC(=O)N1CCC[C@H]1c1nc(-c2ccc(C(=O)Nc3ccccn3)cc2)c2c(N)nccn12 [Acalabrutinib] (tested concentration range 0.1-1000 nM) , the logged drug sensitivity score turned out to be 0.8

So for CCc1c(C(=O)C(N)=O)c2c(OCC(=O)O)cccc2n1Cc1ccccc1 [Varespladib] (tested concentration range 1-10000 nM) , the logged drug sensitivity score turned out to be 1.3

So for CC(C)C[C@H](NC(=O)[C@H](Cc1ccccc1)NC(=O)c1cnccn1)B(O)O [Bortezomib] (tested concentration range 0.1-1000 nM) , the logged drug sensitivity score turned out to be 28.1

So for CCn1c(-c2nonc2N)nc2c(C#CC(C)(C)O)ncc(OC[C@H]3CCCNC3)c21 (tested concentration range 1-10000 nM) , the logged drug sensitivity score turned out to be 1.6

So for CC(=O)[C@]1(O)Cc2c(O)c3c(c(O)c2[C@@H](O[C@H]2C[C@H](N)[C@H](O)[C@H](C)O2)C1)C(=O)c1ccccc1C3=O [Idarubicin] (tested concentration range 0.1-1000 nM) , the logged drug sensitivity score turned out to be 7.9

So for Oc1ncnc2[nH]ncc12 [Allopurinol] (tested concentration range 1-10000 nM) , the logged drug sensitivity score turned out to be 0

So for Nc1ccccc1NC(=O)c1ccc(CNC(=O)OCc2cccnc2)cc1 [Entinostat] (tested concentration range 1-10000 nM) , the logged drug sensitivity score turned out to be 7.4

So for COc1cc2c(cc1OCCCN1CCCC1)N=C(N)C21CCC1 [A-366] (tested concentration range 2.5-25000 nM) , the logged drug sensitivity score turned out to be 0

So for COc1cc2ncnc(Nc3cccc(Cl)c3F)c2cc1OC(=O)N1CCN(C)C[C@H]1C [AZD3759] (tested concentration range 0.1-1000 nM) , the logged drug sensitivity score turned out to be 0

So for N#CC1(c2ccc(NC(=O)c3cccnc3NCc3ccncc3)cc2)CCCC1 [Apatinib] (tested concentration range 1-10000 nM) , the logged drug sensitivity score turned out to be 0

So for NC1(c2ccc(-c3nc4ccn5c(=O)[nH]nc5c4cc3-c3ccccc3)cc2)CCC1 [MK-2206] (tested concentration range 0.1-1000 nM) , the logged drug sensitivity score turned out to be 3

====

Tested on: CAF#5
experimental.protocol: drug sensitivity score (DSS2, normalised partial AUC of dose-response, 72 h CellTiter-Glo viability) (DSS (dimensionless)); higher = more sensitive (stronger growth inhibition / cytotoxicity); extreme values may be limits of the assay
drug sensitivity score vs 0.8: at or above is Satisfied, below is Not satisfied.

# compound, assayed.target, category
rows = [
    ("CC(C)Oc1ccc(C(=O)N[C@H](CNC(=O)CN(C)C)Cc2ccc(-c3cn4cccc([C@H](C)O)c4n3)cc2)cc1Cl (tested concentration range 1-10000 nM)", "CAF#5", "Satisfied"),
    ("COc1cc(CCc2cc(NC(=O)c3ccc(N4CC(C)NC(C)C4)cc3)n[nH]2)cc(OC)c1 (configuration not stated) [AZD4547] (tested concentration range 0.1-1000 nM)", "CAF#5", "Satisfied"),
    ("COc1cc(N2CCC(N3CCN(C)CC3)CC2)ccc1Nc1ncc(Cl)c(Nc2ccccc2P(C)(C)=O)n1 [Brigatinib] (tested concentration range 0.1-1000 nM)", "CAF#5", "Satisfied"),
    ("CC/C(=C(\\c1ccc(O)cc1)c1ccc(OCCN(C)C)cc1)c1ccccc1 [4-hydroxytamoxifen] (tested concentration range 1-10000 nM)", "CAF#5", "Satisfied"),
    ("O=C(Nc1cccnc1)N1CCC(Cc2cccc(Oc3ccc(C(F)(F)F)cn3)c2)CC1 [PF-3845] (tested concentration range 1-10000 nM)", "CAF#5", "Not satisfied"),
]

// inclusive: drug sensitivity score at least 0.8? input: Cc1cn(-c2cc(NC(=O)c3ccc(C)c(Nc4nccc(-c5cccnc5)n4)c3)cc(C(F)(F)F)c2)cn1 [Nilotinib] (tested concentration range 1-10000 nM)
Not satisfied

// inclusive: drug sensitivity score at least 0.8? input: CC1(C)CCC(c2ccc(Cl)cc2)=C(CN2CCN(c3ccc(C(=O)NS(=O)(=O)c4ccc(N[C@H](CCN5CCOCC5)CSc5ccccc5)c(S(=O)(=O)C(F)(F)F)c4)cc3)CC2)C1 [Navitoclax] (tested concentration range 1-10000 nM)
Satisfied

// inclusive: drug sensitivity score at least 0.8? input: CCCCCCCCc1ccc(CCC(N)(CO)CO)cc1 [Fingolimod] (tested concentration range 1-10000 nM)
Satisfied

// inclusive: drug sensitivity score at least 0.8? input: N#Cc1ccc(C(c2ccc(C#N)cc2)n2cncn2)cc1 [Letrozole] (tested concentration range 1-10000 nM)
Not satisfied

// inclusive: drug sensitivity score at least 0.8? input: N#Cc1ccnc(N2C(=O)CC[C@H]2C(=O)N(c2cncc(F)c2)[C@H](C(=O)NC2CC(F)(F)C2)c2ccccc2Cl)c1 [Ivosidenib] (tested concentration range 1-10000 nM)
Not satisfied
